- targetOrTestSystem: MTHFD2 recombinant human enzyme (Homo sapiens)
- Sequence (P13995 36-350): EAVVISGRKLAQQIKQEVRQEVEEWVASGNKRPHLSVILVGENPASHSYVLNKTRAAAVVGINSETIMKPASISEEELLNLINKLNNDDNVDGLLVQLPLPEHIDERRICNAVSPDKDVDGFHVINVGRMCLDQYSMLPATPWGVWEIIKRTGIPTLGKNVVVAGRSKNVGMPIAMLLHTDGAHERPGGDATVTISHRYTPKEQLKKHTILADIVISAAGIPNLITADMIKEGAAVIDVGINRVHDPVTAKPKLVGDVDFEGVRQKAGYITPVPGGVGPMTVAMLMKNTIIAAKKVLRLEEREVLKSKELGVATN
- protocolDetails: MTHFD2 inhibition assay (NAD(P)H-Glo luminescence)
pIC50: −log10 of the molar value.
assayReadout: pIC50

# compound, experimentalResult
records = [
    ("COC[C@H]1CN(c2ccc3c4c(c(=O)oc3c2)CN(C(=O)c2cc(N(C)C)c(C(=O)NS(=O)(=O)N3C5CCC3CC5)cc2F)CC4)CCN1C [Example 191]", "6.00 to 7.00"),
    ("COC[C@H]1CN(c2ccc3c4c(c(=O)oc3c2C)CN(C(=O)c2cc(Cl)c(C(=O)NS(=O)(=O)C3(C)CC3)c(N3CC5CC5C3)c2)CC4)CCN1C (stereo partly drawn) [Example 32]", "7.00 to 8.00"),
    ("CCOc1cc(C(=O)N2CCc3c(c(=O)oc4c(C)c(N5CCN(C)[C@@H](COC)C5)cc(Cl)c34)C2)c(F)cc1C(=O)NS(=O)(=O)C1(C)CC1 [Example 299]", "7.00 to 8.00"),
    ("COC[C@H]1CN(c2cc(Cl)c3c4c(c(=O)oc3c2C)CN(C(=O)c2cc(N(C)C)c(C(=O)NS(=O)(=O)N3CCC5(CC5)C3)cc2F)CC4)CCN1C [Example 274]", "7.00 to 8.00"),
    ("COC[C@H]1CN(c2cc(Cl)c3c4c(c(=O)oc3c2C)CN(C(=O)c2cc(N(C)C)c(C(=O)NS(=O)(=O)N3CC[C@@H](OC)C3)cc2F)CC4)CCN1C [Example 285]", "7.00 to 8.00"),
]

With those in mind, consider the next compound.
Lab entry: MTHFD2 recombinant human enzyme (Homo sapiens) assay, compound COC[C@H]1CN(c2cc(C)c3c4c(c(=O)oc3c2C)CN(C(=O)c2ccc(C(=O)NS(=O)(=O)N(C)C)c(OC3CCCC3)c2F)CC4)CCN1C [Example 43] , pIC50 = 8.00 to 9.00
